- TARGET: T1, extracellular domain (ECD) of the human RNF43 protein, biotinylated, Q68DV7
- T1 chain: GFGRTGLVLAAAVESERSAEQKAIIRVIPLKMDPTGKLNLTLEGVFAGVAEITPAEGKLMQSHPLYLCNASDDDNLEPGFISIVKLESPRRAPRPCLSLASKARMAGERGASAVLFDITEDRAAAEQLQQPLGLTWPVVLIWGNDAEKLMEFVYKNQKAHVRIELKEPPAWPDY
- ASSAY METHOD TEXT: SPR
- CONDITION LABEL: chain shown with the change;; parent: 1.1 ± 0.07 nM
PROPERTY MEASURED: Kd (nM)
Give bare numbers, in nM.

Task item: Item EQCTSTQDLCHDASHVCCWPLDCRWAVKYQWFWDCIG [GUR-1.6.12.2 Y13A] : provide Kd
Reply: 36

These measurements were taken from paper PMC12464775.
